Measured TGI, listed per entry.
tested on: NCI-H460 lung; test: NCI tumour cell line growth inhibition, 48 h

Entry NS(=O)(=O)c1ccc2c(c1)OCCOCCOCCOCCO2 ; TGI = > 100 µM

Entry Nc1ccccc1C#C/C=C\C#Cc1ccccc1OC(F)(F)F ; TGI = 17.3 µM

Entry COC(CCC[N+](C)(C)C)CC[N+](C)(C)C (stereo not drawn) ; TGI = > 100 µM

====

Measured GI50, listed per entry.
tested on: 786-0 renal; assay: NCI tumour cell line growth inhibition, 48 h

Observe how each entry below is paired with its result.
OCCN(CCO)c1ncnc2c1ncn2Cc1ccc(CCl)cc1    20.4 µM
C=C(C)C(OC)C(O)CC1(C)CC(O)CC(C)(C2CCC3OC(C4(C)CCC(Br)C(C)(C)O4)CCC3(C)O2)O1 (stereo not drawn)    17.8 µM

Now for another entry.
Entry Cc1ccc2c(C)c3c(ccc4ccccc43)c[n+]2c1 ; GI50 = 20.1 µM

All values here come from PubChem BioAssay (NCI).
